Data credit: patent US20260098019A1

Consider the following molecules and their measured Average severity of ulcer readings.
- Test system: gastric mucosa
- measurement.description: ulcerogenic liability
- run.conditions: oral, three successive days, 10 mg/kg indomethacin mol equivalent
Please state the value as a number alone, without comment.

Example molecules with recorded Average severity of ulcer:
CC(C)Cc1ccc(C(C)C(=O)OCc2cn(-c3ccccc3Cl)nn2)cc1 (stereo not drawn): 0
CC(C)Cc1ccc(C(C)C(=O)O)cc1 (stereo not drawn) [Ibu, 2-(4-isobutylphenyl)propanoic acid, reference compound]: 0.67
CC(C)Cc1ccc(C(C)C(=O)OCc2cn(-c3ccc(Cl)cc3)nn2)cc1 (stereo not drawn): 0
COc1ccccc1-n1cc(COC(=O)C(C)c2ccc(CC(C)C)cc2)nn1 (stereo not drawn): 0
Cc1ccc(-n2cc(COC(=O)C(C)c3ccc(CC(C)C)cc3)nn2)cc1 (stereo not drawn): 0

Entry COc1ccc2c(c1)c(CC(=O)O)c(C)n2C(=O)c1ccc(Cl)cc1 [Indo, indomethacin, reference compound] needs its Average severity of ulcer filled in; supply it. 1.67

---

// Observed property lookup, one value per entry
- Test system: acetic acid-induced writhing
- measurement.description: acetic acid-induced writhing test (peripheral analgesic)
- Format: in vivo, albino mice
- run.conditions: % inhibition/protection peripheral analgesic
Give a plain numeric answer without units written out.

// known answers, use as guide
COc1ccc2c(c1)c(CC(=O)OCc1cn(-c3ccccc3OC)nn1)c(C)n2C(=O)c1ccc(Cl)cc1: 80.8
COc1ccc2c(c1)c(CC(=O)OCc1cn(-c3ccc(C)cc3)nn1)c(C)n2C(=O)c1ccc(Cl)cc1: 62.5
CC(C)Cc1ccc(C(C)C(=O)OCc2cn(-c3ccccc3Cl)nn2)cc1 (centres unmarked): 83.3
COc1ccc2c(c1)c(CC(=O)OCc1cn(-c3ccc(F)cc3)nn1)c(C)n2C(=O)c1ccc(Cl)cc1: 41.3
COc1ccccc1-n1cc(COC(=O)C(C)c2ccc(CC(C)C)cc2)nn1 (centres unmarked): 63.3
Cc1ccc(-n2cc(COC(=O)C(C)c3ccc(CC(C)C)cc3)nn2)cc1 (centres unmarked): 82.5
COc1ccc(-n2cc(COC(=O)Cc3c(C)n(C(=O)c4ccc(Cl)cc4)c4ccc(OC)cc34)nn2)cc1: 66.8
CC(C)Cc1ccc(C(C)C(=O)OCc2cn(-c3ccc(Cl)cc3)nn2)cc1 (centres unmarked): 87.5
CC(C)Cc1ccc(C(C)C(=O)OCc2cn(-c3ccc(F)cc3)nn2)cc1 (centres unmarked): 83.3
COc1ccc(-n2cc(COC(=O)C(C)c3ccc(CC(C)C)cc3)nn2)cc1 (centres unmarked): 80.0

Give reported Observed property for CC(C)Cc1ccc(C(C)C(=O)OCc2cn(-c3ccc([N+](=O)[O-])cc3)nn2)cc1 (centres unmarked) (acetic acid-induced writhing) 65.0

Give measured Observed property for COc1ccc2c(c1)c(CC(=O)OCc1cn(-c3ccc(Cl)cc3)nn1)c(C)n2C(=O)c1ccc(Cl)cc1 (acetic acid-induced writhing). 46.3

Provide measured Observed property on acetic acid-induced writhing for COc1ccc2c(c1)c(CC(=O)OCc1cn(-c3ccccc3Cl)nn1)c(C)n2C(=O)c1ccc(Cl)cc1 please. 49.3

Look up acetic acid-induced writhing data: Observed property of COc1ccc2c(c1)c(CC(=O)OCc1cn(-c3ccc([N+](=O)[O-])cc3)nn1)c(C)n2C(=O)c1ccc(Cl)cc1 , then report it. 96.3

---

- Test system: gastric mucosa
- measurement.description: ulcerogenic liability
- run.conditions: oral, three successive days, 10 mg/kg indomethacin mol equivalent
measure.name: % Incidence of ulcer divided by 10
Number only, no unit.

Previously resolved entries follow.
COc1ccc2c(c1)c(CC(=O)O)c(C)n2C(=O)c1ccc(Cl)cc1 [Indo, indomethacin, reference compound]: 10
COc1ccccc1-n1cc(COC(=O)C(C)c2ccc(CC(C)C)cc2)nn1 (stereo not drawn) [Compound 5e]: 0

Please report % Incidence of ulcer divided by 10 for the following compound: CC(C)Cc1ccc(C(C)C(=O)OCc2cn(-c3ccccc3Cl)nn2)cc1 (stereo not drawn) [Compound 5a] 0

Please report % Incidence of ulcer divided by 10 for the following compound: CC(C)Cc1ccc(C(C)C(=O)OCc2cn(-c3ccc(Cl)cc3)nn2)cc1 (stereo not drawn) [Compound 5b] 0

Please look at this compound and report its % Incidence of ulcer divided by 10: Cc1ccc(-n2cc(COC(=O)C(C)c3ccc(CC(C)C)cc3)nn2)cc1 (stereo not drawn) [Compound 5d] 0

Quickly give me recorded % Incidence of ulcer divided by 10 for CC(C)Cc1ccc(C(C)C(=O)O)cc1 (stereo not drawn) [Ibu, 2-(4-isobutylphenyl)propanoic acid, reference compound] 3.33

---

Overview of reported % Inhibition/protection across a group of molecules:
- System: acetic acid-induced writhing
- measurement.description: acetic acid-induced writhing test (peripheral analgesic)
- Type: in vivo, albino mice
- run.conditions: vs control; 10 mg/kg indomethacin mol equivalent i.p.
Give your result in % as a bare value.

Before answering, review these 5 worked examples.
CC(C)Cc1ccc(C(C)C(=O)OCc2cn(-c3ccccc3Cl)nn2)cc1 (stereo not drawn): 83.3
C#CCOC(=O)Cc1c(C)n(C(=O)c2ccc(Cl)cc2)c2ccc(OC)cc12: 89.3
COc1ccc2c(c1)c(CC(=O)OCc1cn(-c3ccccc3Cl)nn1)c(C)n2C(=O)c1ccc(Cl)cc1: 49.3
CC(C)Cc1ccc(C(C)C(=O)OCc2cn(-c3ccc(Cl)cc3)nn2)cc1 (stereo not drawn): 87.5
C#CCOC(=O)C(C)c1ccc(CC(C)C)cc1 (stereo not drawn): 71.8

Give the value of % Inhibition/protection reported for the following: CC(C)Cc1ccc(C(C)C(=O)O)cc1 (stereo not drawn) [Ibu, 2-(4-isobutylphenyl)propanoic acid, reference compound] 58.5

---

- test.system: COX-2 (Homo sapiens)
- Sequence (P35354 18-604): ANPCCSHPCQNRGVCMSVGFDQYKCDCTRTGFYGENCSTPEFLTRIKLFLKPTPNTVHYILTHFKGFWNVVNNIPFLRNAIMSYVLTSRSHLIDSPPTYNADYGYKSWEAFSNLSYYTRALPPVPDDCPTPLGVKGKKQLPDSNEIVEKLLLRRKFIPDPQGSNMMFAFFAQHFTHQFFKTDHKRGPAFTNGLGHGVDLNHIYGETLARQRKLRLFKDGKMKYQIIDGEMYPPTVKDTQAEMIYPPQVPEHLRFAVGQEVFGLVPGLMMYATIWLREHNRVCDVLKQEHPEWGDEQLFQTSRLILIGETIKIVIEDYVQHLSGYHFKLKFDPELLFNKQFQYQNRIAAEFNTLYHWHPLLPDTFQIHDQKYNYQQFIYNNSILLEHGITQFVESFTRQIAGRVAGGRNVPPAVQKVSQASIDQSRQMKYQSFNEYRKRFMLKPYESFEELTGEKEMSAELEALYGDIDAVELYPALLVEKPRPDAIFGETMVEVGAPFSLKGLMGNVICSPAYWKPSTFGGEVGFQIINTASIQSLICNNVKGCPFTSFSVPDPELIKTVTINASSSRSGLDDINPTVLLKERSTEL
measure.name: IC50 (µM)
Express it in µM; write the number only.

Example molecules with recorded IC50:
C#CCOC(=O)C(C)c1ccc(CC(C)C)cc1 (stereo not drawn): 8.6
Cc1ccc(-n2cc(COC(=O)C(C)c3ccc(CC(C)C)cc3)nn2)cc1 (stereo not drawn): 4.47

Return reported IC50 for target or system COX-2 (Homo sapiens), item COc1ccccc1-n1cc(COC(=O)C(C)c2ccc(CC(C)C)cc2)nn1 (stereo not drawn) . 14

---

- test.system: COX-1 (UniProt P05979)
- Sequence (P05979 whole entry): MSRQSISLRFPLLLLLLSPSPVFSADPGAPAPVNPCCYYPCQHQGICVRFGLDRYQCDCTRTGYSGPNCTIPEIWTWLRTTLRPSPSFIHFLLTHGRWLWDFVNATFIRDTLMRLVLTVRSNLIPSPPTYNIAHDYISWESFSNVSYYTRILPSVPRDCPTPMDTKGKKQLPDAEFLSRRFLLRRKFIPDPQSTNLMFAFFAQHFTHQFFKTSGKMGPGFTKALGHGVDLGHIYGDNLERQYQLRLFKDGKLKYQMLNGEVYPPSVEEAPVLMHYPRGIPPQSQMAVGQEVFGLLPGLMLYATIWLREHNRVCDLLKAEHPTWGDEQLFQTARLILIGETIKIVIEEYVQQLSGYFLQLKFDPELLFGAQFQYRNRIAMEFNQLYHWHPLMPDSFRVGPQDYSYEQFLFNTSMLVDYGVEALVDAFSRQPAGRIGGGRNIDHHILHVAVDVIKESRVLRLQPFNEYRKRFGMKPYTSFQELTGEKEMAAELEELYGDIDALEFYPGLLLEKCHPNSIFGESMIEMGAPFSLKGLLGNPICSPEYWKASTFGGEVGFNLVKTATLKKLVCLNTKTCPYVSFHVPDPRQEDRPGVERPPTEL
pIC50: −log10 of the molar value.
Classification field: 1.0 = pIC50 at or over 5; 0.0 = pIC50 under 5.

COc1ccccc1-n1cc(COC(=O)C(C)c2ccc(CC(C)C)cc2)nn1 (centres unmarked): 1.0
CC(C)Cc1ccc(C(C)C(=O)OCc2cn(-c3ccc(Cl)cc3)nn2)cc1 (centres unmarked): 0.0
C#CCOC(=O)C(C)c1ccc(CC(C)C)cc1 (centres unmarked): 0.0

Now examine the next entry.
Does the reported pIC50 for CC(C)Cc1ccc(C(C)C(=O)OCc2cn(-c3ccccc3Cl)nn2)cc1 (centres unmarked) fall at or above the 5 mark? 0.0

---

The molecules listed here are annotated with their Average of ulcer number.
- Test system: gastric mucosa
- measurement.description: ulcerogenic liability
- run.conditions: oral, three successive days, 10 mg/kg indomethacin mol equivalent
// return a plain number; no unit text

Cc1ccc(-n2cc(COC(=O)C(C)c3ccc(CC(C)C)cc3)nn2)cc1 (stereo not drawn): 0
CC(C)Cc1ccc(C(C)C(=O)OCc2cn(-c3ccccc3Cl)nn2)cc1 (stereo not drawn): 0
COc1ccc2c(c1)c(CC(=O)O)c(C)n2C(=O)c1ccc(Cl)cc1 [Indo, indomethacin, reference compound]: 2
CC(C)Cc1ccc(C(C)C(=O)OCc2cn(-c3ccc(Cl)cc3)nn2)cc1 (stereo not drawn): 0
CC(C)Cc1ccc(C(C)C(=O)O)cc1 (stereo not drawn) [Ibu, 2-(4-isobutylphenyl)propanoic acid, reference compound]: 0.33

Quote Average of ulcer number reported for COc1ccccc1-n1cc(COC(=O)C(C)c2ccc(CC(C)C)cc2)nn1 (stereo not drawn) please. 0
